Target: thrombin (Homo sapiens)
Construct: Alpha-thrombin was ordered from Enzyme Research Laboratories; purchased Enzyme Research Laboratories (South Bend, IN)
Experiment: Michaelis-Menten enzyme kinetic analysis of thrombin in the presence of PAR4 antagonists
Format: biochemical
Set-up: unit not given here
Details: thrombin in the presence of PAR4 antagonist
Listing of recorded Vmax by entry.
Give the value as a plain number.

molecule | Vmax
Cc1cc(C(=O)Nc2nc(-c3cccc(OC(F)F)c3)n[nH]2)nn1-c1ccccc1 [Compound 9] | 0.0849
COc1cccc(-c2nc(NC(=O)c3nn(-c4ccccc4)c4c3CCCC4)n[nH]2)c1 [Compound 32] | 0.09616
Cc1nc(NC(=O)c2cc(C(=O)OC(C)(C)C)n(-c3ccccc3)n2)n[nH]1 [Compound 7] | 0.08588

Q. Reported Vmax, molecule O=C(Nc1n[nH]c(-c2ccc(F)cc2F)n1)c1nn(-c2ccccc2)c2c1CCCC2 [Compound 31] : ____
A. 0.1010

Q. What value of measured Vmax is listed for COc1ccc2cc(-c3cn4nc(SC)sc4n3)oc2c1 [Compound 6PMJ] ?
A. 0.08856

----------
Measured pIC50 of individual entries
Molecular target: UniProt Q96RI0
Sequence (Q96RI0 48-385): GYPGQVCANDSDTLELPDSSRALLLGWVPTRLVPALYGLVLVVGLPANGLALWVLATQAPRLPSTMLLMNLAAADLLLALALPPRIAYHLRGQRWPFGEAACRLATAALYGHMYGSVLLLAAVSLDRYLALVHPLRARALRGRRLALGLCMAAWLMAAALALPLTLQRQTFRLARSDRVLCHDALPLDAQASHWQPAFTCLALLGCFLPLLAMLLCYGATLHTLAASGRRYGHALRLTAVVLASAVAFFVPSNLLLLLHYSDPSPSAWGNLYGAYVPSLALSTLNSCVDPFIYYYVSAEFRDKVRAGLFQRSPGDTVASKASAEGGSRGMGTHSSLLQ
Experiment: Human platelet flow cytometry assay, PAR4 activation (α-thrombin + vorapaxar)
Details: human platelets, α-thrombin + vorapaxar; N = 3
Reminder that pIC50 means the negative base-10 logarithm of the concentration expressed in mol/L.

compound | assay.metric | val
CC1CNc2c(cccc2S(=O)(=O)N[C@@H](CCCNC(=N)N)C(=O)N2CC[C@@H](C)C[C@@H]2C(=O)O)C1 (stereo partly shown) [Argatroban, reference compound] | pIC50 | 7.19

Q. Would you mind telling me what pIC50 value was observed for Cc1nc(NC(=O)c2cc(C(=O)OC(C)(C)C)n(-c3ccccc3)n2)n[nH]1 [Compound 7] ?
A. 5.18

Where do these numbers come from? They come from paper PMC12797155.
